- MEASURED_TARGET: UniProtKB A0A2N0XRJ0
- Sequence (A0A2N0XRJ0 1-372): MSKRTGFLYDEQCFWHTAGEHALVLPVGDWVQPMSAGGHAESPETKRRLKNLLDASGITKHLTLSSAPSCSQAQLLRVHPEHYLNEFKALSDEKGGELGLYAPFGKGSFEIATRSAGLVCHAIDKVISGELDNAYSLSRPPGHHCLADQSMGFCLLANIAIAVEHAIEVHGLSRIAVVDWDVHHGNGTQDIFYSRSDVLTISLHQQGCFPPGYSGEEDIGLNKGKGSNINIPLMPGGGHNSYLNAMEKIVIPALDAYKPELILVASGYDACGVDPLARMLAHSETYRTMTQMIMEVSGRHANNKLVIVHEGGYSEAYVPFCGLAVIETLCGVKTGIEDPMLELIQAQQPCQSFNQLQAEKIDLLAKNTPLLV
MEASURED_METRIC: Ki (nM)
Return type: number; implicit unit nM.

// returns reported Ki for input CC(/C=C/C(=O)NO)=C\[C@@H](C)C(=O)c1ccc(N(C)C)cc1 [TSA, trichostatin A]
11.1

---

- MEASURED_TARGET: KpHdaH (1b) (Klebsiella pneumoniae)
- Sequence (A0A377Z5F6 1-371): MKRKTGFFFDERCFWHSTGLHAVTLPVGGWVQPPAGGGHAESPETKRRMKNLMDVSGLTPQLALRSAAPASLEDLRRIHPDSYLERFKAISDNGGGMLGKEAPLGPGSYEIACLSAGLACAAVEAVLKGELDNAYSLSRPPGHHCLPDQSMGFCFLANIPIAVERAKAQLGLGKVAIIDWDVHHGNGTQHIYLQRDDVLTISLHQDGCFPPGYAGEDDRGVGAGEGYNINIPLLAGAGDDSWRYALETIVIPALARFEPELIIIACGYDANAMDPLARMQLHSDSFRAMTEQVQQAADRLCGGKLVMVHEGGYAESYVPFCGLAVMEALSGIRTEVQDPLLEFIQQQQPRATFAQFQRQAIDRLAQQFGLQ
MEASURED_METRIC: pKi
A value of pKi is the negative decimal logarithm of a concentration given in moles per litre.

// returns reported pKi for input O=C(CCCCCCC(=O)Nc1ccccc1)NO [SAHA, suberoylanilide hydroxamic acid]
7.65

---

- MEASURED_TARGET: PsApaH (4) (Pseudomonas sp. M30-35)
- Sequence (A0A1Y0KY79 1-342 limits assumed): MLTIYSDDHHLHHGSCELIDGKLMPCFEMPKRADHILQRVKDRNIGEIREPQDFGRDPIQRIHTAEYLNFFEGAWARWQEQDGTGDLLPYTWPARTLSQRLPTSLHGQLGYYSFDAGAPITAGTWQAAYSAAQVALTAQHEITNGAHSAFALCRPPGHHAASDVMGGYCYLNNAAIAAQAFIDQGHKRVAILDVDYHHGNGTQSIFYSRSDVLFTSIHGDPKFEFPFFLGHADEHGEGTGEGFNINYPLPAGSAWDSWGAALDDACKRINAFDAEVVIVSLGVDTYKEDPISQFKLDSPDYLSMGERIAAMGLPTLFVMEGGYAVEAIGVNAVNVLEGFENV
- EXPERIMENT: Acetyl-polyamine deacetylase assay
- Type: biochemical
- COND: time 10 min, mean of samples
MEASURED_METRIC: [acetate] mean

Please review the following examples before continuing.
>>> result("CC(=O)NCCCCCN [N1-acetylcadaverine]")
"5.33 mM"
>>> result("CC(=O)NCCCCN [N1-acetylputrescine]")
"8.367 mM"
>>> result("CC(=O)NCCCNCCCCNCCCN [N1/N12-acetylspermine]")
"4.127 mM"
>>> result("CC(=O)NCCCNCCCCN [N1-acetylspermidine]")
"0.09912 mM"
>>> result("CC(=O)NCCCNCCCCNCCCN [N1-acetylspermine]")
"5.88 mM"

Now consider a different compound.
// returns reported [acetate] mean for input CC(=O)NCCCCNCCCN [N8-acetylspermidine]
2.076 mM

---

- MEASURED_TARGET: RwDmhA (1b) (Rhizorhabdus wittichii, UniProt A0A067XIQ6)
- Sequence (A0A067XIQ6 1-369): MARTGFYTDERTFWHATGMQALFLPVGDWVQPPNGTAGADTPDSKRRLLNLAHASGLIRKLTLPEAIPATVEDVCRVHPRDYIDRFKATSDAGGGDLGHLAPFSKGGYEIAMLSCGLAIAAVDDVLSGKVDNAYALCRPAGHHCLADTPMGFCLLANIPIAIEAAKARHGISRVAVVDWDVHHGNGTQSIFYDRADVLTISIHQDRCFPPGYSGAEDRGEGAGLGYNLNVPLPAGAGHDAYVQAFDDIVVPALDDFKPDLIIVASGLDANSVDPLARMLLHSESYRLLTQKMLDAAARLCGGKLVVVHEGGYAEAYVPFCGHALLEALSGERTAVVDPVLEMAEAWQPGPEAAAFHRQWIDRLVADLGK
- EXPERIMENT: biochemical
- COND: Log[IC50(M)], decadic log of IC50; 60 µM QPKKac, 30 nM enzyme, 60 min, 37 °C
MEASURED_METRIC: IC50 (M)
Return type: number; implicit unit M.

>>> numeric_value("O=C(CCCCCCC(=O)Nc1ccccc1)NO [SAHA, suberoylanilide hydroxamic acid]")
"1e-07"

// returns reported IC50 for input CC(/C=C/C(=O)NO)=C\[C@@H](C)C(=O)c1ccc(N(C)C)cc1 [TSA, trichostatin A]
8.71e-07
